- STUDY_TARGET: Recombinant human renin (Homo sapiens)
- Construct: isolate the active form (residues 67-406); made in house; host or cells: FreeStyle 293-F cells, transient expression of pcDNA3.1(+)/hREN
- Sequence (P00797 67-406): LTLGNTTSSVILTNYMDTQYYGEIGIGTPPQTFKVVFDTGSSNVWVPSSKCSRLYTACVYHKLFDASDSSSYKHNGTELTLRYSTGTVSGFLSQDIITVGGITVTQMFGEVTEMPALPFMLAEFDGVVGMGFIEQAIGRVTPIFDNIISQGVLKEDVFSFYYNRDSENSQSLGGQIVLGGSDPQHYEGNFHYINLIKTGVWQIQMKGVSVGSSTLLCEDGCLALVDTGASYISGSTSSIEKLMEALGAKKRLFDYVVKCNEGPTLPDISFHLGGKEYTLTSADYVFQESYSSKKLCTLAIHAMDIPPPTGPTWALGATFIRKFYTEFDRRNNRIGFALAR
- TEST_DETAILS: In vitro enzymatic activity assay of renin inhibitors (fluorescence, QXL520/HiLyteFluo488 peptide substrate)
- Assay type: biochemical
- CONDITION_NOTES: recombinant human renin 3 nM, 1 μM substrate, pre-incubated 10 minutes at 37° C., incubation one hour, pH 7.4, 5% DMSO; read-out: IC50 of Exemplified Compounds Against Renin
RECORDED_METRIC: IC50

Study these solved cases before continuing.
Cc1ccccc1S(=O)(=O)NCCCn1c(C(=O)N2CCNCC2)c(-c2ccccc2)n(-c2cccc(N3CCOCC3)c2)c1=O
> 1000 nM
C=CCn1c(C(=O)N2CCNCC2)c(-c2ccccc2)n(-c2cccc(N3CCOCC3)c2)c1=O
> 1000 nM
COCCOc1cccc(Cn2c(C(=O)N3CCNCC3)c(-c3ccccc3)n(-c3ccccc3C)c2=O)c1 [Example 186]
100 to 500 nM
COc1ccc(-c2cc(Cn3c(C(=O)N4CCNCC4)c(-c4ccccc4)n(C4CCCCC4)c3=O)cc(N(C)C)n2)cn1 [Example 17H]
100 to 500 nM
Cn1c(C(=O)N2CCNC[C@H]2Cc2ccccc2)c(-c2ccccc2)n(C2CCCCC2)c1=O
< 100 nM
Cc1ccccc1-n1c(-c2ccccc2)c(C(=O)N2CCNCC2)n(CCNS(=O)(=O)c2ccccc2Cl)c1=O
500 to 1000 nM
CC(=O)N1CCCC(n2c(-c3ccccc3)c(C(=O)N3CCNCC3)n(Cc3ccccc3)c2=O)C1 (stereo not shown)
> 1000 nM
Cc1ccccc1-n1c(-c2ccccc2)c(C(=O)N2CCNCC2)n(CCCNS(=O)(=O)c2ccccc2Cl)c1=O
< 100 nM

The molecule listed as CCOC(=O)N1CCc2ccc(-n3c(-c4ccccc4)c(C(=O)N4CCNC[C@H]4Cc4ccccc4)[nH]c3=O)cc21 shows IC50 equal to < 100 nM

The molecule listed as COCCOc1cccc(-n2c(-c3ccccc3)c(C(=O)N3CCNCC3)[nH]c2=O)c1 shows IC50 equal to > 1000 nM

* * *

- STUDY_TARGET: Recombinant human renin (Homo sapiens, UniProt P00797)
- Construct: isolate the active form (residues 67-406); made in house; host or cells: FreeStyle 293-F cells, transient expression of pcDNA3.1(+)/hREN
- Sequence (P00797 67-406): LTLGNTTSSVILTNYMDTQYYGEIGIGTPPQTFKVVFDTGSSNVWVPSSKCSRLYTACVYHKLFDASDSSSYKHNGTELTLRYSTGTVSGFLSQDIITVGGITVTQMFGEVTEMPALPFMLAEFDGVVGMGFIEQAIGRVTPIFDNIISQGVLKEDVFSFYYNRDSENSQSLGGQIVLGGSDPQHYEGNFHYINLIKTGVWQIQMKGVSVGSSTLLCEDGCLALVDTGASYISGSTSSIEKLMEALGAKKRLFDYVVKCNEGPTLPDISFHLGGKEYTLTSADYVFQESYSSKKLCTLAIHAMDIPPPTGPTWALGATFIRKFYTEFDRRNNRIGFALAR
- TEST_DETAILS: In vitro enzymatic activity assay of renin inhibitors (fluorescence, QXL520/HiLyteFluo488 peptide substrate)
- Assay type: biochemical
- CONDITION_NOTES: recombinant human renin 3 nM, 1 μM substrate, pre-incubated 10 minutes at 37° C., incubation one hour, pH 7.4, 5% DMSO; read-out: IC50 of Exemplified Compounds Against Renin
pIC50: −log10 of the molar value.
RECORDED_METRIC: pIC50

COC1CCc2ccc(-n3c(-c4ccccc4)c(C(=O)N4CCNC[C@H]4Cc4ccccc4)[nH]c3=O)cc21 (some centres unmarked)
6.30 to 7.00
COc1cccc(S(=O)(=O)NCCCn2c(C(=O)N3CCNCC3)c(-c3ccccc3)n(-c3ccccc3C)c2=O)c1
6.30 to 7.00
COCCCOc1cccc(-n2c(-c3ccccc3)c(C(=O)N3CCNCC3)n(CCCNC(=O)c3ccccc3)c2=O)c1
6.00 to 6.30
O=C(c1c(-c2ccccc2)n(-c2cccc(N3CCOCC3)c2)c(=O)n1Cc1cccc(OCCOc2ccccc2)c1)N1CCNCC1
6.30 to 7.00
CC(=O)N1CCCC(n2c(-c3ccccc3)c(C(=O)N3CCNC[C@H]3Cc3ccccc3)[nH]c2=O)C1 (some centres unmarked) [Example 104]
6.00 to 6.30
Cc1ccccc1-n1c(-c2ccccc2)c(C(=O)N2CCNC[C@H]2Cc2ccccc2)[nH]c1=O
> 7.00
CCCC(=O)Nc1ccccc1-n1c(-c2ccccc2)c(C(=O)N2CCNC[C@H]2Cc2ccccc2)[nH]c1=O
6.30 to 7.00
COCCCOc1cccc(-n2c(-c3ccccc3)c(C(=O)N3CCNCC3)n(CCCNS(=O)(=O)c3ccccc3)c2=O)c1
6.30 to 7.00
COc1ccccc1-n1c(-c2ccccc2)c(C(=O)N2CCNCC2)n(CC2CCCCC2)c1=O
< 6.00
COc1ccccc1-n1c(-c2ccccc2)c(C(=O)N2CCNC[C@H]2Cc2ccccc2)[nH]c1=O
> 7.00

Case CC(C)CN(C)C(=O)c1cccc(Cn2c(C(=O)N3CCNCC3)c(-c3ccccc3)n(-c3cccc(N4CCOCC4)c3)c2=O)c1 , Recombinant human renin (Homo sapiens, UniProt P00797), pIC50 recorded as < 6.00

Case COc1cccc(Cn2c(C(=O)N3CCNCC3)c(-c3ccccc3)n(C3CCCN(C(C)=O)C3)c2=O)c1 (centres unmarked) , Recombinant human renin (Homo sapiens, UniProt P00797), pIC50 recorded as < 6.00

Case CCN(CC)c1cc(Cn2c(C(=O)N3CCNCC3)c(-c3ccccc3)n(C3CCCCC3)c2=O)cc(-c2ccc(OC)nc2)n1 [Example 17J] , Recombinant human renin (Homo sapiens, UniProt P00797), pIC50 recorded as 6.30 to 7.00

Case Cc1ccccc1-n1c(-c2ccccc2)c(C(=O)N2CCNCC2)n(CCCNS(=O)(=O)C(C)C)c1=O , Recombinant human renin (Homo sapiens, UniProt P00797), pIC50 recorded as < 6.00

Case CC(C)S(=O)(=O)NCCCn1c(C(=O)N2CCNCC2)c(-c2ccccc2)n(-c2cccc(N3CCOCC3)c2)c1=O , Recombinant human renin (Homo sapiens, UniProt P00797), pIC50 recorded as < 6.00

Case COc1ccccc1C(=O)NCCn1c(C(=O)N2CCNCC2)c(-c2ccccc2)n(-c2ccccc2C)c1=O , Recombinant human renin (Homo sapiens, UniProt P00797), pIC50 recorded as 6.00 to 6.30

Case COc1ccc(S(=O)(=O)NCCCn2c(C(=O)N3CCNCC3)c(-c3ccccc3)n(-c3ccccc3C)c2=O)cc1 , Recombinant human renin (Homo sapiens, UniProt P00797), pIC50 recorded as 6.30 to 7.00

Case Cc1ccccc1-n1c(-c2ccccc2)c(C(=O)N2CCNCC2)n(CCNC(=O)OCc2ccccc2)c1=O , Recombinant human renin (Homo sapiens, UniProt P00797), pIC50 recorded as < 6.00

Case O=C(c1c(-c2ccccc2)n(C2CCOCC2)c(=O)n1Cc1ccccc1)N1CCNCC1 , Recombinant human renin (Homo sapiens, UniProt P00797), pIC50 recorded as < 6.00

Case O=C(c1c(-c2ccccc2)n(-c2cccc(N3CCOCC3)c2)c(=O)n1CC1CCCCC1)N1CCNCC1 , Recombinant human renin (Homo sapiens, UniProt P00797), pIC50 recorded as < 6.00

* * *

- STUDY_TARGET: Recombinant human renin (Homo sapiens, UniProt P00797)
- Construct: isolate the active form (residues 67-406); made in house; host or cells: FreeStyle 293-F cells, transient expression of pcDNA3.1(+)/hREN
- TEST_DETAILS: In vitro enzymatic activity assay of renin inhibitors (fluorescence, QXL520/HiLyteFluo488 peptide substrate)
- Type: biochemical
- CONDITION_NOTES: recombinant human renin 3 nM, 1 μM substrate, pre-incubated 10 minutes at 37° C., incubation one hour, pH 7.4, 5% DMSO; read-out: IC50 of Exemplified Compounds Against Renin
RECORDED_METRIC: IC50

Study these solved cases before continuing.
Cc1ccccc1-n1c(-c2ccccc2)c(C(=O)N2CCNCC2)n(CCNS(=O)(=O)C(C)C)c1=O [Example 206]
500 to 1000 nM
CCCS(=O)(=O)Nc1ccccc1-n1c(-c2ccccc2)c(C(=O)N2CCNC[C@H]2Cc2ccccc2)[nH]c1=O [Example 119]
< 100 nM
COCCOc1cccc(Cn2c(C(=O)N3CCNCC3)c(-c3ccccc3)n(-c3ccccc3C)c2=O)c1 [Example 27]
100 to 500 nM

The molecule listed as Cc1ccccc1-n1c(-c2ccccc2)c(C(=O)N2CCNCC2)n(CCNS(=O)(=O)c2cccc(Cl)c2)c1=O [Example 205] shows IC50 equal to > 1000 nM

The molecule listed as NC(=O)Cn1c(C(=O)N2CCNCC2)c(-c2ccccc2)n(C2CCCCC2)c1=O [Example 63] shows IC50 equal to > 1000 nM

The molecule listed as Cc1ccccc1-n1c(-c2ccccc2)c(C(=O)N2CCNCC2)n(CCCNC(=O)c2cccc(Cl)c2)c1=O [Example 242] shows IC50 equal to > 1000 nM
